Test system: SF-268 CNS
Assay: NCI-60 one-dose screen, 48 h
Settings: 10 µM unless noted
This is part of a sample that, as a whole, favours compounds with a hit. Of some 83,000 tested, about 20% had one in any assay. Calls of active or inactive are those of the source. How the source made its calls: active means growth percent below 10; inactive means the rest.
Labels: 1.0 = active, 0.0 = inactive

INSERT INTO assay_data (molecule, assayed_system, qualitative_label) VALUES
  ('COc1cc2cc(Oc3ccc(NC(=O)Nc4ccc(Cl)c(C(F)(F)F)c4)cc3)c(C)nc2cc1OCCN1CCCCC1', 'SF-268 CNS', 1.0),
  ('CCOC(=O)c1cnn(CC(O)c2ccc(F)cc2)c1NC(=O)Nc1ccccc1F (stereo not given)', 'SF-268 CNS', 0.0),
  ('COc1cc(-c2ccc3cc(OC)c(OC)c(OC)c3c2)cc(OC)c1OC', 'SF-268 CNS', 0.0),
  ('O=S(=O)(Nc1ccc(Cl)c(Cl)c1)c1ccc(-c2cnc(C3CC3)o2)cc1', 'SF-268 CNS', 0.0),
  ('COc1nc2c(cc1S(=O)(=O)c1ccccc1)CCc1c-2cnn1-c1cccc(Cl)c1', 'SF-268 CNS', 0.0),
  ('CCCCC/C=C\C/C=C/CCCCCCCCNC(=O)Nc1ccc([N+](=O)[O-])cc1', 'SF-268 CNS', 0.0),
  ('CCOC(=O)C1=C(C)N2C(=NC3=C(CCCC/C3=C\c3ccccc3)C2c2ccccc2)S1 (stereo not given)', 'SF-268 CNS', 0.0),
  ('O=C1CN2CCC1C/C2=C\c1ccnc2c(Cl)cccc12 (stereo not given)', 'SF-268 CNS', 0.0),
  ('CCCCC1COc2cccc3c(SCC(=O)N(C)c4cccc5ccccc45)cc[n+]1c23 (stereo not given)', 'SF-268 CNS', 0.0),
  ('CN1CCc2c(c3ccccc3c3ccccc23)C1', 'SF-268 CNS', 0.0);

----------
System: OVCAR-4 ovarian
Experiment: NCI-60 one-dose screen, 48 h (100 = growth as untreated, 0 = no growth, -100 = all killed)
Details: 10 µM unless noted
The panel holds about 83,000 compounds, 20% with a hit somewhere; the sample as a whole holds those more often. Activity calls are given as the source filed them. The calls were made as follows: active = growth percent below 10; inactive = the rest.
This section presents compounds with their documented growth values.
value.type: growth

INSERT INTO measurements (compound, observed_value) VALUES
  ('CN1CCN(C)c2cncc(Br)c2C1=O', '115% (inactive)'),
  ('O=C(CCc1nnc2sc(-c3ccccc3)nn12)c1nc2ccccc2[nH]1', '98.7% (inactive)'),
  ('CC(=O)N(CC(O)CO)c1c(I)c(C(=O)NCCO)c(I)c(C(=O)NCC(O)CO)c1I (stereo not given)', '102% (inactive)'),
  ('O=[N+]([O-])c1ccc2nc(N/N=C/c3ccc(O)cc3)sc2c1', '56% (inactive)'),
  ('CCCCOC(=O)C1OC(Oc2ccc3c(C)cc(=O)oc3c2)[C@@H](OC(C)=O)C(OC(C)=O)C1OC(C)=O (stereo not given in full)', '101% (inactive)'),
  ('Cc1c(C(=O)Nc2nc(-c3ccccc3)cs2)nnn1-c1ccccc1Br', '19.6% [50 µM] (inactive)'),
  ('C=C(C)CCCC(C)CC#N (stereo not given)', '105% (inactive)'),
  ('COc1cc(/C=C/c2cc(/C=C/c3ccc(O)c(OC)c3)n(-c3ccccc3)n2)ccc1O', '4.49% (active)'),
  ('C[C@H]1C(=O)C23CCC1C[C@@]21O[C@@H]2C(C)(C)C=CC(=O)C23COC1=O', '108% (inactive)'),
  ('CCCCCCCC/C=C\CCCCCCCCOc1cccc(CC(=O)NCC[N+]2(C)CCCC2)c1', '77.1% (inactive)');
